Quick list: Weight change (%) D5 per entry.
System: human non-small cell lung cancer NCI-H446
Assay: Inhibitory activity of larotaxel and tesetaxel derivatives on subcutaneously xenografted tumor NCI-H446 in nude mice
Conditions: D5; 12 mg/kg, D0 IV; nude mice
Give just the numeric value; % need not be written.

compound	observed.value
CC(=O)O[C@H]1C(=O)[C@]23C[C@H]2C[C@H]2OC[C@@]2(OC(C)=O)[C@H]3[C@H](OC(=O)c2ccccc2)[C@]2(O)C[C@H](OC(=O)[C@H](OC(=O)[C@H](F)CCN(C)C)[C@@H](NC(=O)OC(C)(C)C)c3ccccc3)C(C)=C1C2(C)C.Cl	−8.5

Asked: Under human non-small cell lung cancer NCI-H446: Weight change (%) D5 value of CC(=O)OC12COC1CCC1(C)C3OC(CN(C)C)OC3C3=C(C)C(OC(=O)C(OC(=O)C(CCN(C)C(C)C)C(F)(F)F)C(NC(=O)OC(C)(C)C)c4ncccc4F)CC(O)(C(OC(=O)c4ccccc4)C12)C3(C)C.O=C(O)CCC(=O)O (mixture of isomers) ?
Given back: −11.4

Asked: human non-small cell lung cancer NCI-H446 / Weight change (%) D5 / CCN(C)CCC(F)C(=O)OC(C(=O)OC1CC2(O)C(OC(=O)c3ccccc3)C3C4(OC(C)=O)COC4CC4CC43C(=O)C(OC(C)=O)C(=C1C)C2(C)C)C(NC(=O)OC(C)(C)C)c1ccccc1.Cl (stereo not shown) : value?
Given back: −9.1

Asked: Which Weight change (%) D5 is reported with human non-small cell lung cancer NCI-H446 for this entry: CC(=O)OC1C(=O)C23CC2CC2OCC2(OC(C)=O)C3C(OC(=O)c2ccccc2)C2(O)CC(OC(=O)C(OC(=O)C(CCN(C)C(C)C)C(F)(F)F)C(NC(=O)OC(C)(C)C)c3ccccc3)C(C)=C1C2(C)C.O=C(O)C=CC(=O)O (mixture of isomers) ?
Given back: −10.5
